Biological target: pig GPR84 (Sus scrofa)
Sequence (I6WJ99 1-396): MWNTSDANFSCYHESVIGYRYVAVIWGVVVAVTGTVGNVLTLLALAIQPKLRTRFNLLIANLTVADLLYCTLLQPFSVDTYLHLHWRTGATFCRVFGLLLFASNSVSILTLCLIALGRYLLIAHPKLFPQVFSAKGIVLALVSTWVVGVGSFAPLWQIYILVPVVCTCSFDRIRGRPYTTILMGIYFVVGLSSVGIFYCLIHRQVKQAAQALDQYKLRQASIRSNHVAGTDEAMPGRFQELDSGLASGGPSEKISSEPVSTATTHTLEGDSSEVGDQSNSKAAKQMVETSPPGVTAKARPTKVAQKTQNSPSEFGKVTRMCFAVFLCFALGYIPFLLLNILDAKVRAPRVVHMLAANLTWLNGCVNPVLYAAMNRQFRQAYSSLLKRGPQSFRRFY
Assay: cAMP regulation assay in CHO cells expressing pig GPR84
Conditions: versus EC80 of 6-OAU
pIC50: −log10 of the molar value.

smiles	pIC50
c1ccc(-c2nnc(Cc3c[nH]c4ccccc34)nc2-c2ccccc2)cc1	8.25

----------
Target: mouse GPR84 (Mus musculus)
Construct: expressed in transfected cells
Sequence (Q8CIM5 whole entry): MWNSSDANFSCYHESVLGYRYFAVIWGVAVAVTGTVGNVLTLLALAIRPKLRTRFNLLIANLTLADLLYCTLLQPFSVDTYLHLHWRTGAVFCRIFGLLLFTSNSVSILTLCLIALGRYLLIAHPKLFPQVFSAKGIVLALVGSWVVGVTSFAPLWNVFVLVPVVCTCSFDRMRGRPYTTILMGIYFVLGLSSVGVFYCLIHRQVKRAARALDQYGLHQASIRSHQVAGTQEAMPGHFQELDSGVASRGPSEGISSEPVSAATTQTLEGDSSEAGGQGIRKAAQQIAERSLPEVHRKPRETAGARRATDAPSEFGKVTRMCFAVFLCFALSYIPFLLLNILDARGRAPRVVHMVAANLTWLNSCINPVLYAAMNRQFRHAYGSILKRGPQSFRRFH
Assay: cAMP regulation assay in CHO cells expressing mouse GPR84
Type: cell-based
Conditions: versus EC80 of 6-OAU
pIC50: −log10 of the molar value.
value kind: pIC50

compound	measurement target	value kind	measured value
c1ccc(-c2nnc(Cc3c[nH]c4ccccc34)nc2-c2ccccc2)cc1 [Compound 140]	mouse GPR84 (Mus musculus)	pIC50	< 5.00

Every entry's value here was drawn from paper PMC8506611.
